Data provenance is ChEMBL document CHEMBL1201862.

- Test system: HL-60
- experimental_details: NCI tumour cell line growth inhibition, 48 h
The source made the active and inactive calls. Rule as the data show it: active = GI50 up to about 1.1 µM and inactive = higher.
readout_label: GI50

- compound: "C=C1C(=O)OC2/C=C(\\C(=O)O)CC/C=C(\\C)CC(OC(=O)/C=C(\\C)CC)C12 (configuration not stated)"
  readout_label: "GI50"
  observed_value: "72.6 µM (inactive)"
- compound: "Clc1ccc(/C(=C/c2ccccc2)Cn2ccnc2)cc1"
  readout_label: "GI50"
  observed_value: "14.3 µM (inactive)"
- compound: "CCOC(=O)C1=C(OS(=O)(=O)C(F)(F)F)CCCC1"
  readout_label: "GI50"
  observed_value: "> 100 µM (inactive)"
- compound: "C=C(Br)C(C)(Cl)CCC(Br)C(C)(C)Br (configuration not stated)"
  readout_label: "GI50"
  observed_value: "19.9 µM (inactive)"
- compound: "CCOC(=O)c1ccc(Nc2nc3cc(C(F)(F)F)ccc3nc2-c2ccccc2)cc1"
  readout_label: "GI50"
  observed_value: "50.2 µM (inactive)"
- compound: "N#Cc1ccc(-c2ccc(Cl)cc2)n(C2OC(CO)C(O)C(O)C2O)c1=S (configuration not stated)"
  readout_label: "GI50"
  observed_value: "> 100 µM (inactive)"
- compound: "CCOC1NC(=O)c2ccccc21 (configuration not stated)"
  readout_label: "GI50"
  observed_value: "> 100 µM (inactive)"

* * *

- Tested on: HOP-62
- experimental_details: NCI tumour cell line growth inhibition, 48 h
The source made the active and inactive calls. Cut-off read from the data, not from the text of the source: active = GI50 up to about 1.1 µM and inactive = higher. Where a SMILES comes first, the peptide text is derived from it. The star is where a group is joined. Cbz = O=C(OCc1ccccc1)*; Boc = CC(C)(C)OC(=O)*; tBu = CC(C)(C)*
Outcomes: active, inactive

- compound: "C[C@]12CC[C@H]3[C@@H](CC=C4C[C@@H](N5CCCC5)CC[C@@]43C)[C@@H]1C[C@H](N1CCOCC1)[C@@H]2O"
  label_class: "inactive"
- compound: "O=C(Nc1ccc(Cl)cc1)C(=O)C(C(=O)c1ccccc1-c1ccccc1)C1OC(=O)c2ccccc21 (stereo unspecified)"
  label_class: "inactive"
- compound: "ClC(Cl)(Cl)C1CCOC1n1nc2ccccc2n1 (stereo unspecified)"
  label_class: "inactive"
- compound: "COP(=N[Si](C)(C)C)(OC)OC"
  label_class: "inactive"
- compound: "COc1cc2c(cc1OC)C(Cc1cc(Br)c(OC)c(OC)c1)=[N+](C)CC2"
  label_class: "inactive"
- compound: "O/N=C\\c1c2c(cc3c1CCC3)CCC2"
  label_class: "inactive"
- compound: "N#C[BH2-][n+]1ccc(C(=O)NNCC(F)(F)F)cc1"
  label_class: "inactive"
- compound: "O=C1N(c2ccccc2)N=C2c3ccncc3C3=NN(c4ccccc4)C(=O)C123 (stereo unspecified)"
  label_class: "inactive"
- compound: "CC(c1ccccc1)/[N+]([O-])=C/c1ccccc1 (stereo unspecified)"
  label_class: "inactive"
- compound: "O=c1cc(NNc2cccc(F)c2)[nH]c(=S)[nH]1"
  label_class: "inactive"
- compound: "CCOC(=O)c1c(NC(=O)Nc2ccccc2)c(C(N)=O)c2n1CCCCC2"
  label_class: "inactive"
- compound: "c1ccc2c(c1)SCCCS2"
  label_class: "inactive"
- compound: "COC1=C[C@]2(CCC(=O)O2)[C@@H]2Cc3ccccc3[C@H](O)[C@@H]2C1=O"
  label_class: "inactive"
- compound: "N#C/C(=C\\c1ccc(O)c(O)c1)c1c(C#N)c(N)nn1-c1ccccc1"
  label_class: "inactive"
- compound: "COc1cccc([C@H]2CC(=O)c3cc4c(cc3N2)OCO4)c1"
  label_class: "active"
- compound: "C=C(Br)C(C)(Cl)CCC(Br)C(C)(C)Br (stereo unspecified)"
  label_class: "inactive"
- compound: "CC(=O)OC[C@H]1[C@@H]2C(CC[C@]13CO3)OC(=O)CC(C)[C@]2(C)CCc1ccoc1 (stereo partly specified)"
  label_class: "inactive"
- compound: "O=C1c2c(c3c4ccccc4[nH]c3c3[nH]c4ccccc4c23)C(=O)N1Cc1ccccc1"
  label_class: "inactive"
- compound: "O=C(N/C=C1\\C(=O)Oc2ccccc2C1=O)NC1CCCCC1"
  label_class: "inactive"
- compound: "CC(=O)Nc1cccc(N2C(=O)/C(=C\\c3cccc(Oc4ccccc4)c3)SC2c2ccccc2)c1 (stereo unspecified)"
  label_class: "inactive"
- compound: "O=C(OCc1ccccc1C1CSCSC1)c1cc(C(=O)OCc2ccccc2C2CSCSC2)c(C(=O)OCc2ccccc2C2CSCSC2)cc1C(=O)OCc1ccccc1C1CSCSC1"
  label_class: "inactive"
- compound: "CN(C)c1nnnn1-c1c(N)n(C)c(=O)n(C)c1=O"
  label_class: "inactive"
- compound: "CC(OC(C)(C)C)C(NC(=O)C(CCCCNC(=O)OC(C)(C)C)NC(=O)C(Cc1c[nH]c2ccccc12)NC(=O)C(Cc1ccccc1)NC(=O)OCc1ccccc1)C(=O)NC(Cc1ccccc1)C(=O)O (stereo unspecified) (Cbz-FWK(Boc)T(tBu)F-OH; configuration not given here)"
  label_class: "inactive"
- compound: "COc1ccc2c(-c3cc4ccccc4o3)cc(=O)oc2c1"
  label_class: "inactive"
- compound: "COc1ccc(N[S+]([O-])c2c(C)cc(C)cc2C)cc1 (stereo unspecified)"
  label_class: "inactive"
- compound: "CS(=O)(=O)N1CC(CI)c2ccc(O)cc21 (stereo unspecified)"
  label_class: "inactive"
- compound: "CCOc1ccccc1/N=N/c1ccc2oc(=O)c(C(=O)Nc3cccc(C)c3)cc2c1"
  label_class: "inactive"
- compound: "CCCc1[nH]nc(C(N)=O)c1/N=N/N(C)C"
  label_class: "inactive"
- compound: "C[C@]12C=CC(=O)C=C1[C@@H](F)C[C@H]1[C@@H]3CC[C@](O)(C(=O)CO)[C@@]3(C)C[C@H](O)[C@@]12F"
  label_class: "inactive"
- compound: "COc1cc(Nc2cnc3ccc(N)cc3n2)cc(OC)c1OC"
  label_class: "inactive"
- compound: "CC(C)(C)c1ccccc1NS(=O)(=O)c1ccccc1"
  label_class: "inactive"
- compound: "CC(C)COC1Sc2ccccc2S1"
  label_class: "inactive"
- compound: "Cc1cn(C2CCN(CC3COC(C)(C)O3)O2)c(=O)[nH]c1=O (stereo unspecified)"
  label_class: "inactive"
- compound: "CCC(=O)C(CCN1CCC2(CCCc3ccccc32)CC1)(c1ccccc1)c1ccccc1"
  label_class: "inactive"
- compound: "O=c1oc2ccc3ccccc3c2cc1-c1nc2ccc([N+](=O)[O-])cc2o1"
  label_class: "inactive"
- compound: "NCCCNCc1c2ccccc2c(CNCCCN)c2ccccc12"
  label_class: "inactive"
- compound: "CCN(CC)c1ccc2cc(-c3nc(O)c4ccccc4n3)c(=N)oc2c1"
  label_class: "inactive"
- compound: "CC(C)c1c2[nH]c3ccccc3c2c(C(C)C)c2[nH]c3ccccc3c12"
  label_class: "inactive"
- compound: "O=S(=O)(c1ccccc1)C1CC(c2nc3ccccc3[nH]2)=NO1 (stereo unspecified)"
  label_class: "inactive"
- compound: "CCOC(=O)c1nc2ccccc2nc1Nc1ccc(C(=O)OC)s1"
  label_class: "inactive"
- compound: "CSc1ccccc1NC1=NCCO1"
  label_class: "inactive"

* * *

Listed compounds paired with reported GI50
- Test system: NCI/ADR-RES
- experimental_details: NCI tumour cell line growth inhibition, 48 h
Calls of active or inactive are those of the source. Rule as the data show it: active = GI50 up to about 1.1 µM and inactive = higher.
readout_label: GI50

- compound: "CNc1cc(OCc2ccccc2)c(OC)cc1C(=O)N1CCC[C@H]1CO"
  readout_label: "GI50"
  observed_value: "> 100 µM (inactive)"
- compound: "N/N=C1/C(=N/O)CCc2nonc21"
  readout_label: "GI50"
  observed_value: "> 100 µM (inactive)"
- compound: "OCC1CCCCCCCCCCC12SCCCS2 (stereo not given)"
  readout_label: "GI50"
  observed_value: "> 100 µM (inactive)"
- compound: "CC1=NN(c2nc(N)nc(/C(C#N)=C\\c3ccc([N+](=O)[O-])s3)n2)C(C)(C)C1"
  readout_label: "GI50"
  observed_value: "1.18 µM (inactive)"
- compound: "COC(=O)C(Cc1ccc2c(c1)CCCC2)Cc1cc2c(cc1C(O)OC)CCC2 (stereo not given)"
  readout_label: "GI50"
  observed_value: "32.8 µM (inactive)"
- compound: "CCOC(=O)CCC(NC(=O)c1ccc(NCc2ccc3nc(-c4ccccc4)c(Cl)nc3c2)c2ccccc12)C(=O)OCC (stereo not given)"
  readout_label: "GI50"
  observed_value: "> 100 µM (inactive)"
- compound: "O=c1c(NCc2ccccc2)c(C2(c3ccccc3F)SCCCS2)c1=O"
  readout_label: "GI50"
  observed_value: "> 100 µM (inactive)"
- compound: "COC(=O)c1c2c(cc3c1CC1(C3)Cc3cc4c(c(C(=O)OC)c3C1)CCCC4)CCCC2"
  readout_label: "GI50"
  observed_value: "> 100 µM (inactive)"
- compound: "OCC1OC(n2cnc3cccnc32)CC1O (stereo not given)"
  readout_label: "GI50"
  observed_value: "> 100 µM (inactive)"
- compound: "CNC(=O)N1CN(c2ccccc2)C2(CCN(CCCC3(c4ccc(F)cc4)OCCO3)CC2)C1=O"
  readout_label: "GI50"
  observed_value: "> 100 µM (inactive)"
